System: RPMI-8226 leukemia
METHOD: NCI tumour cell line growth inhibition, 48 h
MEASURED_METRIC: TGI (µM)
Return type: number; implicit unit µM.

[[record]]
smi = "O=S(=O)(SCCCCSS(=O)(=O)c1ccc(Cl)cc1)c1ccc(Cl)cc1"
value_reported = 28.5


Now turn to the next compound.
Query :: Fill in: TGI of Cn1c(=O)nc2n(-c3cc(Cl)ccc3Cl)c3ccccc3nc-2c1=O is ___
Result :: 33.7

---

Tested on: HL-60(TB) leukemia
METHOD: NCI tumour cell line growth inhibition, 48 h
TGI values for the molecules below.
Return type: number; implicit unit µM.

Known TGI results, listed for orientation:
[[record]]
molecule = "Cc1ccc(-c2nc3cc(N4CCN(C)CC4)c(F)cc3[nH]2)cc1"
measured_metric = "TGI"
value_reported = 46

[[record]]
molecule = "CC1(C)[C@@H]2CC[C@@]1(C)C1(SS1=O)C21Cc2ccccc2C1 (stereo not given in full)"
measured_metric = "TGI"
value_reported = 42.5


Query :: Fill in: TGI of Cn1cc/c(=N\N=c2/ccn(C)c3ccccc23)c2ccccc21 is ___
Result :: 21.6

---

System: HL-60(TB) leukemia
METHOD: NCI tumour cell line growth inhibition, 48 h
MEASURED_METRIC: TGI

[[record]]
compound = "Cc1nc2c(o1)C(=Nc1ccccc1)c1ccccc1C2=Nc1ccccc1"
value_reported = "> 100 µM"

[[record]]
compound = "Nc1nc2ccc(NCc3ccc(C(=O)NC(CCC(=O)O)C(=O)O)cc3)cc2c(=O)[nH]1 (stereo not drawn)"
value_reported = "> 100 µM"

[[record]]
compound = "CC1CCC2(OC1)OC1CC3C4CCC5CC(O)CCC5(C)C4CC(=O)OC3(C)C1C2C (stereo not drawn)"
value_reported = "> 100 µM"

[[record]]
compound = "Cc1nc2ccc(Cl)cc2c(Cl)c1CCCl"
value_reported = "> 100 µM"


Now turn to the next compound.
Query :: Fill in: TGI of O=C1CSC(c2ccc([N+](=O)[O-])cc2)N1c1nc(-c2ccc3c(c2)CCCC3)cs1 (stereo not drawn) is ___
Result :: > 100 µM

---

System: HCC-2998 colon
METHOD: NCI tumour cell line growth inhibition, 48 h
MEASURED_METRIC: log10 TGI (log10 of the value in µM)
The figures below represent log10 of TGI, where TGI is stated in µM.

Known log10 TGI results, listed for orientation:
[[record]]
molecule = "Cc1ccc(C(=O)CC(O)(C(F)(F)F)C(F)(F)F)cc1[N+](=O)[O-]"
value_reported = 1.11

[[record]]
molecule = "CC(=O)OC(C)(C)C1O[C@@]23OC1C[C@@H](C)[C@@H]2[C@@]1(C)CC[C@@]24C[C@@]25CC[C@H](OC2OCC(O)C(O)C2O)C(C)(C)[C@@H]5CCC4[C@]1(C)[C@H]3O (stereo partly specified)"
value_reported = 1.41

[[record]]
molecule = "CCOC(=O)CCC(NC(=O)c1ccc(Sc2nc3cc(N)cc(N)c3nc2-c2ccccc2)cc1)C(=O)OCC (stereo unspecified)"
value_reported = 1.23

[[record]]
molecule = "C=CC[C@@]1(OC(C)=O)C(=O)C(=O)OC1C1COC(C)(C)O1 (stereo partly specified)"
value_reported = 1.61


Now turn to the next molecule.
Query :: Fill in: log10 TGI of COc1cccc(/C=C2\COc3ccc(O)c(O)c3C2=O)c1 is ___
Result :: 0.48

Reference for the values: PubChem BioAssay (NCI)
